Just for reference, patent US7183306B2 is where these values come from.

// reported melting point per item

Check out these entries, answers already filled in.
# structure string, measured value
records = [
    ("COc1ccc(-n2nc(C3CC3)cc2-c2ccc(CCO)cc2)cc1", "111 to 112 °C"),
    ("COc1ccc(-n2nc(C(=O)N3CCCCC3)cc2-c2ccc(CNS(C)(=O)=O)cc2)cc1", "179.3 to 179.6 °C"),
    ("COc1ccc(-n2nc(C(F)(F)F)cc2-c2ccc(CCO)cc2)cn1", "89 to 92 °C"),
    ("COc1ccc(-n2nc(OCC(F)(F)F)cc2-c2ccc(OCCNC(N)=O)cc2)cn1", "134.8 to 134.9 °C"),
    ("COc1ccc(-n2nc(OCC(F)(F)F)cc2-c2ccc(OCCO)cc2)cn1", "91.2 to 91.3 °C"),
    ("COc1ccc(-n2nc(C(=O)C3CC3)cc2-c2ccc(OCCO)cc2)cn1", "104 to 106 °C"),
    ("COc1ccc(-n2nc(OC)cc2-c2ccc(OCCO)cc2)cc1", "107 to 109 °C"),
    ("COc1ccc(-n2nc(Cl)cc2-c2ccc(CNC(N)=O)cc2)cc1", "125.5 to 126.2 °C"),
]

**Query** Could you share which melting point value was measured for CO/N=C(\C)c1cc(-c2ccc(CCO)cc2)n(-c2ccc(OC)cc2)n1 ?
**Result** 82 to 86 °C

**Query** Could you share which melting point value was measured for COc1ccc(-n2nc(C(=O)C(C)C)cc2-c2ccc(CNC(N)=O)cc2)cn1 ?
**Result** 157 to 157.3 °C

---

// reported melting point per item

# compound, recorded endpoint, measured value
measured = [
    ("COc1ccc(-n2nc(OCC(F)(F)F)cc2-c2ccc(CNS(C)(=O)=O)cc2)cn1", "melting point", "130 to 131 °C"),
    ("COC(=O)NCCc1ccc(-c2cc(C(F)(F)F)nn2-c2ccc(OC)cc2)cc1", "melting point", "78 to 80 °C"),
]

**Query** Could you share which melting point value was measured for CCN(C)C(=O)c1cc(-c2ccc(CNS(C)(=O)=O)cc2)n(-c2ccc(OC)cc2)n1 ?
**Result** 149.8 to 150.8 °C

**Query** Could you share which melting point value was measured for COc1ccc(-n2nc(C(F)F)cc2-c2ccc(OCCNC(N)=O)cc2)cn1 [241] ?
**Result** 139 to 140 °C

**Query** Could you share which melting point value was measured for COc1ccc(-n2nc(OC(C)C)cc2-c2ccc(OCCO)cc2)cn1 ?
**Result** 74 to 75 °C

**Query** Could you share which melting point value was measured for COc1ccc(-n2nc(SC)cc2-c2ccc(OCCNC(N)=O)cc2)cc1 ?
**Result** 141.2 to 142.2 °C

**Query** Could you share which melting point value was measured for COc1ccc(-n2nc(C(F)(F)F)cc2-c2ccc(CCNC(N)=O)cc2)cc1 ?
**Result** 157 to 158 °C

**Query** Could you share which melting point value was measured for COCCOc1cc(-c2ccc(OCCNS(C)(=O)=O)cc2)n(-c2ccc(OC)cc2)n1 ?
**Result** 94.5 to 94.7 °C

**Query** Could you share which melting point value was measured for COc1ccc(-n2nc(C(F)(F)F)cc2-c2ccc(CCC[S+](C)[O-])cc2)cn1 (centres unmarked) ?
**Result** 92 to 93 °C

**Query** Could you share which melting point value was measured for CSc1ccc(-n2nc(C(F)F)cc2-c2ccc(OCCNS(C)(=O)=O)cc2)cc1 ?
**Result** 122.7 to 122.8 °C

**Query** Could you share which melting point value was measured for COc1ccc(-n2nc(C#N)cc2-c2ccc(OCCN)cc2)cc1.Cl ?
**Result** 186 to 189 °C

**Query** Could you share which melting point value was measured for COc1ccc(-n2nc(C3CC3)cc2-c2ccc(OCCO)cc2)cc1 ?
**Result** 142 to 144 °C

---

// reported melting point per item

Check out these entries, answers already filled in.
# compound, melting point
measured = [
    ("CCN(C)C(=O)c1cc(-c2ccc(OCCNC(N)=O)cc2)n(-c2ccc(OC)cc2)n1", "108 to 113 °C"),
    ("COc1ccc(-n2nc(Cl)cc2-c2ccc(CNS(C)(=O)=O)cc2)cc1", "68.3 to 69.3 °C"),
    ("COc1ccc(-n2nc(S(C)(=O)=O)cc2-c2ccc(OCCN)cc2)cc1", "104 to 106 °C"),
    ("COc1ccc(-n2nc(C3CC3)cc2-c2ccc(OCCNC(N)=O)cc2)cn1", "94 to 96 °C"),
    ("COc1ccc(-n2nc(S(C)(=O)=O)cc2-c2ccc(OCCO)cc2)cc1", "96 to 99 °C"),
]

**Query** Could you share which melting point value was measured for COc1ccc(-n2nc(Cl)cc2-c2ccc(CNC(N)=O)cc2)cn1 ?
**Result** 111 to 115 °C

**Query** Could you share which melting point value was measured for COc1ccc(-n2nc(C(=O)N3CCCCC3)cc2-c2ccc(OCCO)cc2)cc1 ?
**Result** 121.9 to 123.8 °C

**Query** Could you share which melting point value was measured for COc1ccc(-n2nc(OCC(=O)N(C)C)cc2-c2ccc(OCCO)cc2)cc1 ?
**Result** 106.6 to 107.1 °C

**Query** Could you share which melting point value was measured for COc1ccc(-n2nc(C3CC3)cc2-c2ccc(OCCN)cc2)cc1.Cl [277] ?
**Result** 229 to 231 °C

**Query** Could you share which melting point value was measured for COc1ccc(-n2nc(OC(C)C)cc2-c2ccc(OCCNS(C)(=O)=O)cc2)cn1 ?
**Result** 121 to 121.6 °C

---

// reported melting point per item

Check out these entries, answers already filled in.
# compound, recorded endpoint, measured value
rows = [
    ("COc1ccc(-n2nc(C(C)(C)O)cc2-c2ccc(OCCNC(N)=O)cc2)cc1", "melting point", "147 to 152 °C"),
    ("COc1ccc(-n2nc(Cl)cc2-c2ccc(OCCNS(C)(=O)=O)cc2)cn1", "melting point", "112 to 114 °C"),
    ("CCN(C)C(=O)c1cc(-c2ccc(CCNS(C)(=O)=O)cc2)n(-c2ccc(OC)cc2)n1", "melting point", "162 to 163 °C"),
    ("COc1ccc(-n2nc(OC)cc2-c2ccc(OCCNS(C)(=O)=O)cc2)cn1", "melting point", "116 to 117.5 °C"),
    ("CCN(C)C(=O)c1cc(-c2ccc(CNC(N)=O)cc2)n(-c2ccc(OC)cc2)n1", "melting point", "184.7 to 185.1 °C"),
]

**Query** Could you share which melting point value was measured for COc1ccc(-n2nc(C(F)F)cc2-c2ccc(OCCNC(N)=O)cc2)cn1 [Example 250] ?
**Result** 141.5 to 142.1 °C

**Query** Could you share which melting point value was measured for COc1ccc(-n2nc(C#N)cc2-c2ccc(OCCNS(C)(=O)=O)cc2)cc1 ?
**Result** 149 to 153 °C

**Query** Could you share which melting point value was measured for COc1ccc(-n2nc(Cl)cc2-c2ccc(OCCO)cc2)cc1 ?
**Result** 114.7 to 115.5 °C

**Query** Could you share which melting point value was measured for COc1ccc(-n2nc(C(F)(F)F)cc2-c2ccc(CCNC(N)=O)cc2)cn1 ?
**Result** 205 to 206 °C

**Query** Could you share which melting point value was measured for COc1ccc(-n2nc(C(=O)N3CCCCC3)cc2-c2ccc(OCCNC(N)=O)cc2)cc1 ?
**Result** 152 to 152.2 °C

---

recorded endpoint: melting point

Check out these entries, answers already filled in.
# structure string, melting point
records = [
    ("COc1ccc(-n2nc(OC(C)C)cc2-c2ccc(OCCNS(C)(=O)=O)cc2)cc1", "167.9 to 168 °C"),
    ("CCOC(=O)c1cc(-c2ccc(OCCO[Si](C)(C)C(C)(C)C)cc2)n(-c2ccc(OC)cc2)n1", "86 to 87 °C"),
    ("CCOc1cc(-c2ccc(OCCO)cc2)n(-c2ccc(OC)nc2)n1", "81 to 82 °C"),
    ("COc1ccc(-n2nc(OC)cc2-c2ccc(OCCNC(N)=O)cc2)cc1", "108 to 111 °C"),
]

Consider now this further compound.
**Query** Could you share which melting point value was measured for COc1ccc(-n2nc(C(=O)C(C)C)cc2-c2ccc(OCCNS(C)(=O)=O)cc2)cc1 ?
**Result** 155 °C

---

// reported response vs control in vivo at 3.2 mg/kg per item
Tested on: arthritic rats (adjuvant arthritis)
test name: Analgesic activity: effect on adjuvant arthritis in rats (Randall-Selitto pain threshold)
Type: in vivo, Lewis rats
condition set: Rattus norvegicus, single dose, pain threshold of left hind paw 2 hrs after administration, threshold pressure of treated vs non-treated rats, ratio of 1.5 considered effective, read-out: The coefficient of analgesic

Check out these entries, answers already filled in.
# molecule, recorded endpoint, measured value
measured = [
    ("COc1ccc(C2N=C(C(F)F)C=C2c2ccc(OCCNC(N)=O)cc2)cc1 (stereo not shown)", "response vs control in vivo at 3.2 mg/kg", "≥ 150%"),
    ("COc1ccc(-n2nc(Cl)cc2-c2ccc(OCCNC(N)=O)cc2)cc1", "response vs control in vivo at 3.2 mg/kg", "> 150%"),
    ("COc1ccc(-n2nc(C3CC3)cc2-c2ccc(OCCNC(N)=O)cc2)cc1", "response vs control in vivo at 3.2 mg/kg", "≥ 150%"),
]

**Query** Could you share which response vs control in vivo at 3.2 mg/kg value was measured for COc1ccc(-n2nc(Cl)cc2-c2ccc(OCCO)cc2)cc1 ?
**Result** > 150%
